Attribution: PubChem BioAssay (NCATS)

Test: qHTS for differential inhibitors of proliferation of Plasmodium falciparum line D10 (AID 1877);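 further: parasites grown with compound for 72 h before DNA staining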; further: potency means the concentration at half of the fitted maximal effect
Conditions: series mostly up to 28.7 µM
Results filed as inconclusive are left out. Activity calls are given as the source filed them. The call rests on the fitted dose curve; in most records, active means well fitted curve in the direction sought with a large enough effect; inconclusive means small, poorly fitted or top-dose-only effect, or another doubt; inactive means no such curve, though single readings can be large or run the other way.
Parameter measured: Potency

[[record]]
chemical_structure = "CC(C)N(CCC(=O)c1ccc2ccccc2c1)Cc1ccccc1"
data_value = "inactive"

[[record]]
chemical_structure = "CN(C)c1cc2c(Nc3ccc4c(cnn4Cc4ccccc4)c3)ncnc2cn1"
data_value = "10 µM (active)"

[[record]]
chemical_structure = "C[C@]12CCC(=O)C=C1CC[C@@H]1[C@@H]2[C@@H](O)C[C@@]2(C)[C@H]1CC[C@]2(O)C(=O)COC(=O)CCC(=O)O"
data_value = "inactive"

[[record]]
chemical_structure = "O=C1NC(c2cccc([N+](=O)[O-])c2)=CCN1c1ccccc1O"
data_value = "inactive"


----------
Assay: qHTS of pediatric cancer cell lines to identify multiple opportunities for drug repurposing: Primary screen for Saos-2 cells (AID 1347097); further: nearly all actives have a fitted effect of over 40% in size
Details: Saos-2 viability, CellTiter-Glo ATP luminescence, 48 h; series mostly up to 46 µM
Results filed as inconclusive are left out. Calls of active or inactive are those of the source. Calls follow the shape of the dose curve; as a rule, active = well fitted cell-killing curve with a large enough effect; inconclusive = small, poorly fitted or top-dose-only effect; inactive = no such curve, though single readings can be large or run the other way.
A correct response names exactly one class from active, inactive

Check out these entries, answers already filled in.
[[record]]
chemical_structure = "CC(=O)OC[C@H]1O[C@@H](OC(C)=O)[C@H](OC(C)=O)[C@@H]1OC(C)=O"
class_label = "inactive"

[[record]]
chemical_structure = "CCCC(=O)O[C@]1(C(=O)COC(=O)CC)CC[C@H]2[C@@H]3CCC4=CC(=O)CC[C@]4(C)[C@H]3[C@@H](O)C[C@@]21C"
class_label = "inactive"


Input: Record request — test call for CCCCN(CCN(CCCC)C(=O)N1CCOCC1)C(=O)N1CCOCC1
Output: active

Input: Check COc1ccc2cc(C=O)ccc2c1 too.
Output: inactive

Input: Entry O=c1[nH]c2ccccc2c(=O)n1CCCl please
Output: inactive

----------
Assay: qHTS of pediatric cancer cell lines to identify multiple opportunities for drug repurposing: Confirmatory screen for OHS-50 cells (AID 1347128);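 further: compound exposure lasted 48 h at 37 degrees C; nearly all actives have a fitted effect of over 55% in size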; further: potency means the concentration at half of the fitted maximal effect
Conditions: OHS-50 osteosarcoma cells viability; series mostly up to 45.9 µM
Inconclusive results are not listed. Calls of active or inactive are those of the source. The call rests on the fitted dose curve; in most records, active means well fitted cell-killing curve with a large enough effect; inconclusive means small, poorly fitted or top-dose-only effect, or effect the other way; inactive means no such curve, though single readings can be large or run the other way.
Parameter measured: Potency

[[record]]
compound = "C[C@]12CCC(=O)C=C1CC[C@@H]1[C@@H]2[C@@H](O)C[C@@]2(C)[C@H]1CC[C@]2(O)C(=O)COC(=O)CCC(=O)O"
data_value = "inactive"

[[record]]
compound = "Cc1cc(OCCOCC[N+](C)(C)Cc2ccccc2)ccc1C(C)(C)CC(C)(C)C"
data_value = "14.7 µM (active)"

[[record]]
compound = "CC(=O)OCC(=O)[C@@]1(O)CCC2C3CCC4=CC(=O)CC[C@]4(C)C3[C@@H](O)C[C@@]21C (stereo partly drawn)"
data_value = "inactive"


----------
System: HEK293
Test: Cytotoxic Profiling of Annotated Libraries Using Quantitative High-Throughput Screening (AID 1296008); further: nearly all actives have a fitted effect of over 60% in size
Details: Five cell lines viability, CellTiter-Glo ATP luminescence, 48-72 h
Records with an inconclusive call do not appear. Active and inactive are the calls of the source. The call rests on the fitted dose curve; in most records, active means well fitted inhibition curve with a large enough effect; inconclusive means small, poorly fitted or top-dose-only effect; inactive means flat fitted curve, though single readings scatter.
API: response.call in active, inactive

[[record]]
molecule = "CCN(CC)C(=O)C1CN2CCc3cc(OC)c(OC)cc3C2CC1OC(C)=O (stereo unspecified)"
class_label = "inactive"

[[record]]
molecule = "O=C(Oc1ccccc1)c1ccccc1O"
class_label = "inactive"

[[record]]
molecule = "COc1ccccc1N1CCN(CCN2C(=O)CC3(CCCC3)CC2=O)CC1"
class_label = "inactive"

[[record]]
molecule = "Cc1c(F)cc2c(=O)c(C(=O)O)cn3c2c1CCC3C (stereo unspecified)"
class_label = "inactive"


Input: Short answer needed: outcome of this test for OC[C@]1(O)OC[C@@H](O)[C@H](O)[C@@H]1O ?
Output: inactive

Input: Another molecule: COC(=O)c1cc(Cl)ccc1OC
Output: inactive

Input: Entry Cc1ccc(C(C)OC(=O)C2(C)CCC(C(=O)O)C2(C)C)cc1 (stereo unspecified) please
Output: inactive

Input: Okay, and Cc1cccc(C)c1NC(=O)c1cc(S(N)(=O)=O)c(Cl)cc1O ?
Output: inactive

Input: Field entry: CCCCCOc1ccccc1/C(=C\SC)n1ccnc1
Output: active
